Ref: the NIST ThermoML archive (doi:10.1016/j.jct.2013.01.005)

# ASSAY_NAME: activity coefficient (dimensionless); of the first substance listed, at infinite dilution; xn = mol fraction of the nth substance listed
# TEST_CONTEXT: 348.15 K; 101 kPa; Liquid; Chromatography; x1 = 0
ENDPOINT: activity coefficient

- COMPOUND: "C#CCCC [1-pentyne] + CCCCC[N+]1(C)CCCCC1.O=S(=O)([N-]S(=O)(=O)C(F)(F)F)C(F)(F)F"
  VALUE_MEASURED: 1.69
- COMPOUND: "CCCCO [butan-1-ol] + CCCCC[N+]1(C)CCCCC1.O=S(=O)([N-]S(=O)(=O)C(F)(F)F)C(F)(F)F"
  VALUE_MEASURED: 1.71
- COMPOUND: "CCCO [propan-1-ol] + CCCCCC[N+]1(C)CCCCC1.O=S(=O)([N-]S(=O)(=O)C(F)(F)F)C(F)(F)F"
  VALUE_MEASURED: 1.43
- COMPOUND: "CCc1ccccc1 [ethylbenzene] + CCCCC[N+]1(C)CCCCC1.O=S(=O)([N-]S(=O)(=O)C(F)(F)F)C(F)(F)F"
  VALUE_MEASURED: 1.42
- COMPOUND: "C=CCCCCCC [oct-1-ene] + CCCCC[N+]1(C)CCCCC1.O=S(=O)([N-]S(=O)(=O)C(F)(F)F)C(F)(F)F"
  VALUE_MEASURED: 8.77
- COMPOUND: "CC(C)=O [acetone] + CCCCC[N+]1(C)CCCCC1.O=S(=O)([N-]S(=O)(=O)C(F)(F)F)C(F)(F)F"
  VALUE_MEASURED: 0.456
- COMPOUND: "Cc1cccc(C)c1 [1,3-dimethylbenzene] + CCCCC[N+]1(C)CCCCC1.O=S(=O)([N-]S(=O)(=O)C(F)(F)F)C(F)(F)F"
  VALUE_MEASURED: 1.36
- COMPOUND: "CCc1ccccc1 [ethylbenzene] + CCCCCC[N+]1(C)CCCCC1.O=S(=O)([N-]S(=O)(=O)C(F)(F)F)C(F)(F)F"
  VALUE_MEASURED: 0.957

====

# ASSAY_NAME: activity coefficient (dimensionless); of the first substance listed, at infinite dilution; xn = mol fraction of the nth substance listed
# TEST_CONTEXT: 338.15 K; 101 kPa; Liquid; Chromatography; x1 = 0
The following molecules are shown together with reported activity coefficient values.

- MOLECULE: "C=CCCCCC [1-heptene] + CCCCCC[N+]1(C)CCCCC1.O=S(=O)([N-]S(=O)(=O)C(F)(F)F)C(F)(F)F"
  activity coefficient: 5.59
- MOLECULE: "C#CCCC [1-pentyne] + CCCCCC[N+]1(C)CCCCC1.O=S(=O)([N-]S(=O)(=O)C(F)(F)F)C(F)(F)F"
  activity coefficient: 1.5
- MOLECULE: "Cc1ccccc1C [1,2-dimethylbenzene] + CCCCC[N+]1(C)CCCCC1.O=S(=O)([N-]S(=O)(=O)C(F)(F)F)C(F)(F)F"
  activity coefficient: 1.19
- MOLECULE: "Cc1ccc(C)cc1 [1,4-dimethylbenzene] + CCCCC[N+]1(C)CCCCC1.O=S(=O)([N-]S(=O)(=O)C(F)(F)F)C(F)(F)F"
  activity coefficient: 1.32

====

# ASSAY_NAME: activity coefficient (dimensionless); of the first substance listed, at infinite dilution; xn = mol fraction of the nth substance listed
# TEST_CONTEXT: 358.15 K; 101 kPa; Liquid; Chromatography; x1 = 0
ENDPOINT: activity coefficient

- COMPOUND: "C1CCCCC1 [cyclohexane] + CCCCC[N+]1(C)CCCCC1.O=S(=O)([N-]S(=O)(=O)C(F)(F)F)C(F)(F)F"
  VALUE_MEASURED: 4.99
- COMPOUND: "C1CCOC1 [tetrahydrofuran] + CCCCCC[N+]1(C)CCCCC1.O=S(=O)([N-]S(=O)(=O)C(F)(F)F)C(F)(F)F"
  VALUE_MEASURED: 0.635
- COMPOUND: "c1ccsc1 [thiophene] + CCCCCC[N+]1(C)CCCCC1.O=S(=O)([N-]S(=O)(=O)C(F)(F)F)C(F)(F)F"
  VALUE_MEASURED: 0.675
